Target: SARS-COV-2 RBD extracellular domain expressed with a C-terminal myc-myc-hexahistidine tag (SARS-CoV-2)
Assay: SPR (Biacore), mAb captured by anti-human Fc, RBD-mmH in solution, 25 C
Measured Endpoint: t½ (min)
Expressed in min, but write only the number.

t½ reading for mAb14282 (antibody, V domains shown) VH: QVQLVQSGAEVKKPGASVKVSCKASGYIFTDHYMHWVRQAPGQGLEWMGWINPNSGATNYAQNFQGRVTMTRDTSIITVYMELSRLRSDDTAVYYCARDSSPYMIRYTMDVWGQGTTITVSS VL: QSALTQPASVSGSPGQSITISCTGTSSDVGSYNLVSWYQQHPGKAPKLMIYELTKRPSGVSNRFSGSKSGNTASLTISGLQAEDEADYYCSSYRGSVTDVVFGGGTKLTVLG : 1.2

GET /value?item= mAb15163 (antibody, V domains shown) VH: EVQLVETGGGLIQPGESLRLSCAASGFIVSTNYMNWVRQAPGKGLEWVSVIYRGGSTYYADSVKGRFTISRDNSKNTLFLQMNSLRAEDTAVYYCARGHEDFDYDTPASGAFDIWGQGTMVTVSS VL: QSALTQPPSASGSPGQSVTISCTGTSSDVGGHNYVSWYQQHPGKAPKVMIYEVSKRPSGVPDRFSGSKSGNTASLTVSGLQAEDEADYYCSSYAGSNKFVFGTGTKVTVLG &field=t½ returns 693

Reported t½ of mAb15162 (antibody, V domains shown) VH: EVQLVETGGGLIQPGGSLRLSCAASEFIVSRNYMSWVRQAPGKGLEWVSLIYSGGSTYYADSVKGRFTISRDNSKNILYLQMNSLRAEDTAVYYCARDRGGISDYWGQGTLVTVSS VL: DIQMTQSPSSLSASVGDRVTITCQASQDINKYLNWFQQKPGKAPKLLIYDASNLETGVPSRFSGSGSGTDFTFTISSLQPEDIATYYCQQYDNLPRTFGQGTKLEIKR : 13.6
